# credit: paper PMC9569940

# Target under test: TAAR1 (Homo sapiens)
# Construct: expressed in transfected cells; host or cells: HEK-293 cells, transient transfection
# Assay comment: BRET cAMP biosensor (EPAC) assay of TAAR1 agonistic activity in transiently transfected HEK-293 cells
# Type: cell-based
# Condition notes: compound at 1 μM; compared to 1 μM tyramine hydrochloride (positive control), primary screening
This section presents molecules with their documented Agonistic Activity at 1 μM, % values.
Measurement name: Agonistic Activity at 1 μM, % (%)

INSERT INTO results (molecule, result) VALUES
  ('Cc1cccc(NC(=O)N2CCC(CCN)CC2)c1.Cl [Compound 9]', 89),
  ('Cl.NCCC1CCN(C(=O)Nc2ccccc2)CC1 [Compound 1]', 65),
  ('Cl.NCCC1CCN(C(=O)Nc2cc(F)ccc2F)CC1 [Compound 12]', 75),
  ('Cl.NCCC1CCN(C(=O)Nc2ccc(F)cc2)CC1 [Compound 11]', 84);

* * *

# Target under test: TAAR1 (Homo sapiens)
# Construct: expressed in transfected cells; host or cells: HEK-293 cells, transient transfection
# Assay comment: BRET cAMP biosensor (EPAC) assay of TAAR1 agonistic activity in transiently transfected HEK-293 cells
# Format: cell-based
# Design: key: Inactive: Producing less than 20% activation of TAAR1 relative to 1 μM tyramine hydrochloride
# Condition notes: primary screening at 1 μM or 10 μM; relative to 1 μM tyramine hydrochloride
Measurement name: Agonistic Activity (class Inactive)

INSERT INTO assay_data (structure_smiles, measurement_name, result) VALUES
  ('CN1CCC(CCN)CC1.Cl.Cl', 'Agonistic Activity (class Inactive)', 'Inactive'),
  ('Cl.NCCC1CCN(C(=O)Nc2cccc(Cl)c2)CC1', 'Agonistic Activity (class Inactive)', 'Inactive'),
  ('Cc1ccccc1NC(=O)N1CCC(CCN)CC1.Cl', 'Agonistic Activity (class Inactive)', 'Inactive'),
  ('Cl.NCCC1CCN(C(=O)Nc2cc(F)cc(F)c2)CC1', 'Agonistic Activity (class Inactive)', 'Inactive'),
  ('Cc1ccc(NC(=O)N2CCC(CCN)CC2)cc1F.Cl', 'Agonistic Activity (class Inactive)', 'Inactive');

* * *

# Target under test: TAAR1 (Homo sapiens, UniProt Q96RJ0)
# Construct: expressed in transfected cells; host or cells: HEK-293 cells, transient transfection
# Sequence (Q96RJ0 1-339): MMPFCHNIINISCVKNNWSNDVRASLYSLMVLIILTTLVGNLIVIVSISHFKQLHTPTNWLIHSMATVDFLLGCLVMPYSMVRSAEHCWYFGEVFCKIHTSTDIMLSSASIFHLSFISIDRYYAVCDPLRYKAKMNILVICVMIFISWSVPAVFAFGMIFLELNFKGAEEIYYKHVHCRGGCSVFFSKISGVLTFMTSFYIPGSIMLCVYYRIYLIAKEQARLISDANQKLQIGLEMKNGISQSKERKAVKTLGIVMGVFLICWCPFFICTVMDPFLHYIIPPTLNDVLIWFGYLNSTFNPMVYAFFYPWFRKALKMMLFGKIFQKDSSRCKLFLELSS
# Assay comment: BRET cAMP biosensor (EPAC) assay of TAAR1 agonistic activity in transiently transfected HEK-293 cells
# Format: cell-based
# Condition notes: HEK293; compound at 10 μM (footnote c); compared to 1 μM tyramine hydrochloride (positive control), primary screening
Would you please tag the item yes when its activation at 10 µM is 80% or above, and no when it is below?

INSERT INTO results (structure_smiles, assigned_label) VALUES
  ('COc1ccc(C)cc1NC(=O)N1CCC(CCN)CC1', 'yes'),
  ('Cc1cc(C)cc(NC(=O)N2CCC(CCN)CC2)c1.Cl', 'yes'),
  ('Cl.NCCC1CCN(C(=O)Nc2cccc(C(F)(F)F)c2)CC1', 'yes'),
  ('Cc1cc(NC(=O)N2CCC(CCN)CC2)ccc1F', 'yes'),
  ('Cc1cccc(C(=O)N2CCC(CCN)CC2)c1', 'no'),
  ('NCCC1CCN(C(=O)c2ccccc2)CC1', 'no'),
  ('Cc1ccc(NC(=O)N2CCC(CCN)CC2)cc1C.Cl', 'yes');
